# Tested on: P12-Ichikawa
# PROTOCOL TEXT: cell viability relative to DMSO control; higher = less cytotoxic
# CONDITIONS: RPMI 5 mM glucose + 10% dialyzed FBS; 48 h; 5.12 µM
READOUT KIND: cell viability (%)

{"COMPOUND": "OC1=CC2=C(C(=C1)O)C(=O)\\C(=C(/O2)C3=CC(=C(O)C=C3)O)O", "READOUT KIND": "cell viability", "RESULT NUMBER": 118}
{"COMPOUND": "CN(C)C1=C(Br)C=C(C=C1)C\\2NC3=C(\\C4=C2C(=O)CC(C)(C)C4)C5=CC=CC=C5C=C3 (stereo unspecified)", "READOUT KIND": "cell viability", "RESULT NUMBER": 101}
{"COMPOUND": "c1ccc(-c2oc3ncnc(NC[C@@H]4CCCO4)c3c2-c2ccccc2)cc1", "READOUT KIND": "cell viability", "RESULT NUMBER": 112}
{"COMPOUND": "C[S+](=O)([O-])c1ccc(Oc2cc(F)cc(C#N)c2)c2c1[C@H](O)C(F)(F)C2", "READOUT KIND": "cell viability", "RESULT NUMBER": 110}
{"COMPOUND": "COc1cc(N2CCC(N(C)C)CC2)ccc1Nc1ncc(Cl)c(Nc2ccccc2P(C)(C)=O)n1", "READOUT KIND": "cell viability", "RESULT NUMBER": 30.8}
{"COMPOUND": "N#C[C@H](O[C@@H]1O[C@H](CO[C@@H]2O[C@H](CO)[C@@H](O)[C@H](O)[C@H]2O)[C@@H](O)[C@H](O)[C@H]1O)c1ccccc1", "READOUT KIND": "cell viability", "RESULT NUMBER": 82.9}

###

# Test system: NOMO1
# PROTOCOL TEXT: AUC of viability dose-response curve (% viability x log10 dose units); higher = less sensitive
# CONDITIONS: HPLM + 10% dialyzed FBS; 48 h
AUC of viability dose-response curve strictly under 400 means rule met; at 400 or over means rule not met.

{"COMPOUND": "COc1ncc(-c2ccc3c(Nc4cc(Oc5cc(F)cc(F)c5)cc(C(=O)O)c4)c([S+](=O)([O-])NC4CC4)cnc3c2)c(OC)n1", "LABEL": "rule not met"}
{"COMPOUND": "OC[C@H]1O[C@@H]2[C@@H](OC\\3=N\\C(=N)\\C=C/[N@@]23)[C@@H]1O", "LABEL": "rule met"}
{"COMPOUND": "C[C@]12CC(=O)[C@H]3[C@@H](CC\\C4=C\\C(=O)\\C=C/[C@]34C)[C@@H]1CC[C@]2(O)C(=O)CO", "LABEL": "rule not met"}
{"COMPOUND": "CCOC(=O)\\C1=C\\[C@@H](OC(CC)CC)[C@H](NC(C)=O)[C@@H](N)C1", "LABEL": "rule not met"}
{"COMPOUND": "CCOc1ccc(Cc2cc([C@@H]3O[C@H](CO)[C@@H](O)[C@H](O)[C@H]3O)ccc2Cl)cc1", "LABEL": "rule not met"}
{"COMPOUND": "CNC(=O)CN1CCC(Oc2cc3c(Nc4cccc(Cl)c4F)ncnc3cc2OC)CC1", "LABEL": "rule met"}
{"COMPOUND": "COc1cc(C)c(Sc2cnc(NC(=O)c3ccc(CNC(C)C(C)C)cc3)s2)cc1C(=O)N1CCN(C(C)=O)CC1 (stereo unspecified)", "LABEL": "rule not met"}
{"COMPOUND": "CN(C)C(=O)C(CCN1CCC(O)(c2ccc(Cl)cc2)CC1)(c1ccccc1)c1ccccc1", "LABEL": "rule not met"}
{"COMPOUND": "C#CCN[C@@H]1CCc2ccccc21.CS(=O)(=O)O", "LABEL": "rule not met"}
{"COMPOUND": "Cn1cc(-c2ccc(F)c(C(F)(F)F)c2)nc1C1CCN(c2ncnc3[nH]ncc23)CC1", "LABEL": "rule not met"}
{"COMPOUND": "N#C[C@H](O[C@@H]1O[C@H](CO[C@@H]2O[C@H](CO)[C@@H](O)[C@H](O)[C@H]2O)[C@@H](O)[C@H](O)[C@H]1O)c1ccccc1", "LABEL": "rule not met"}
{"COMPOUND": "CC(=O)NCC(=O)N1[C@@H]2CC[C@H]1c1ccc(Nc3ncc(C(F)(F)F)c(NC4CCC4)n3)cc12", "LABEL": "rule met"}
{"COMPOUND": "Cc1noc(-c2ccc(CSCCC(=O)O)cc2)c1NC(=O)OC(C)c1ccccc1Cl (stereo unspecified)", "LABEL": "rule not met"}
{"COMPOUND": "COC(=O)N1CC2(CC2)C[C@H](C(=O)NO)[C@H]1C(=O)N1CCN(c2ccccc2)CC1", "LABEL": "rule met"}
{"COMPOUND": "CC/1=C(/N2[C@H](SC1)[C@H](NC(=O)C(N)C3=CC=CC=C3)C2=O)C(O)=O (stereo partly specified)", "LABEL": "rule not met"}

// provenance: the supplement of paper PMC11451515
